Target: Voltage-gated potassium channel subunit beta-2 (Rattus norvegicus) (UniProt P62483)
Sequence (P62483 whole entry, looked up): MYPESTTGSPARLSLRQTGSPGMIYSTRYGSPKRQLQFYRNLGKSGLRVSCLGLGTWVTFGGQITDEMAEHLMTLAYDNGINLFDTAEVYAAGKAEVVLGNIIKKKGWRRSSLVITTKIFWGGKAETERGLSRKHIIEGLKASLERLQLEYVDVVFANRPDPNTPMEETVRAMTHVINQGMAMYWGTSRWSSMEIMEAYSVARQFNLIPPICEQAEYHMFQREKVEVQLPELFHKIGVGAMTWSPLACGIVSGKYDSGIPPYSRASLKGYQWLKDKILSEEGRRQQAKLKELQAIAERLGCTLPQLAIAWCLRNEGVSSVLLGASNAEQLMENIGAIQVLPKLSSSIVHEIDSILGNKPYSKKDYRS
Experiment: enhancers of rat Kvbeta2 NADPH turnover – biochemical, NADPH fluorescence, primary screen (AID 623);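 further: fluorescence intensity change per second fitted from 20 to 320 s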
Details: Recombinant KvBeta, NADPH fluorescence decrease slope, 10 min; at 10 µM; stronger effect = lower value
Quick reference: NADPH fluorescence slope of the listed items.
# output: bare number, no unit

Would you please look over these solved cases?
# compound, NADPH fluorescence slope
rows = [
    ("CCCC(=O)Nc1ccc(OCC(=O)OC)cc1", "-1.2e-05"),
    ("CN(CC(=O)Nc1ccccc1Cl)C(=O)COC(=O)CNC(=O)c1ccc(Br)o1", "2.6e-05"),
    ("O=C(COc1ccccc1Cl)N1CCCC1", "2.9e-05"),
    ("Nc1nnc(Cc2ccc(Cl)cc2)s1", "-7.5e-05"),
]

Please report the measured NADPH fluorescence slope for N[C@@H](Cc1cc(I)c(Oc2ccc(O)c(I)c2)c(I)c1)C(=O)O
-3.3e-05

Please report the measured NADPH fluorescence slope for O=C(NC1CCc2ccccc21)C1CCN(S(=O)(=O)c2ccc(-n3cnnn3)cc2)CC1 (configuration not stated)
1.5e-06

Please report the measured NADPH fluorescence slope for Cc1ccc(Oc2ccc(-c3nc(N)nc(N)n3)cc2)cc1
-2.9e-05

Please report the measured NADPH fluorescence slope for CCc1cccc2c3c([nH]c12)C(CC)(CC(=O)O)OCC3 (configuration not stated)
-6.2e-05

Please report the measured NADPH fluorescence slope for CCc1cc2c(NCCC(=O)O)ncnc2s1
1.3e-05
